experimentNotes: Compound was tasted for its sweet potency, expressed with relative to sucrose
As shown below, each of these compounds has a reported Sweetness potency value.
A bare number is all that is needed in reply.

Example results:
{"compoundSmiles": "CC1=CCC(/C=N/O)=CC1", "valueObserved": 500}
{"compoundSmiles": "C/C=C(C)/C=N/O", "valueObserved": 40}

Kindly consider the entry below.
Lookup: Supply reported Sweetness potency belonging to this compound: C/C=C(C)/C(C)=N/O
Found: 140

====

experimentNotes: Compound was tasted for its sweet potency, expressed with relative to sucrose
As shown below, each of these compounds has a reported Sweetness potency value.

Example results:
{"compoundSmiles": "COCC1=CCC(/C=N/O)=CC1", "Sweetness potency": 225}
{"compoundSmiles": "O/N=C/C1=CCC=CC1", "Sweetness potency": 200}
{"compoundSmiles": "O/N=C/C1=CC=CCC1", "Sweetness potency": 90}
{"compoundSmiles": "O/N=C/C1=CCCC1", "Sweetness potency": 55}

Kindly consider the entry below.
Lookup: Supply reported Sweetness potency belonging to this compound: O/N=C/C1=CCCCC1
Found: 55
